Overview of reported Osteoblast Cell Proliferation, 3H-thymidine incorporation vs control (100%) across a group of molecules:
# System: mouse (MC3T3-E1) and human (TE-85) osteoblast-line cells
# Assay type: cell-based
# ASSAY SETUP: 10^-10
REPORTED METRIC: Osteoblast Cell Proliferation, 3H-thymidine incorporation vs control (100%)

| MOLECULE | UNITS TEXT | RECORDED MEASUREMENT |
| --- | --- | --- |
| Cc1ccc(S(=O)(=O)N2N=C(c3ccccc3)CC3Cc4ccccc4C32)cc1 (centres unmarked) [Compound 158, Hemihydrate] | % | 119 |
| CC1CC(c2ccccc2)=NN(C(=S)c2ccc(Cl)c(Cl)c2)C1 (racemic) | % | 149 |
| O=S(=O)(c1ccc(Br)cc1)N1CCCC(c2ccc(Cl)c(Cl)c2)=N1 | % | 99 |
| O=S(=O)(/C=C/c1ccc(-c2ccccc2)cc1)N1CCCC(c2ccc(Cl)c(Cl)c2)=N1 | % | 109 |
| O=S(=O)(c1cccc(C(F)(F)F)c1)N1CCCC(c2ccc(Cl)cc2)=N1 | % | 154 |
